test system: Plasmodium falciparum; test: Antimalarial activity against chloroquine-sensitive Plasmodium falciparum CDC/I/HB-3; assay type: functional, organism-based
experimental.endpoint: IC50 (µM)
Respond numerically; units are µM and should not be typed.

Take a look at these entries with their results.
CC(=O)Oc1c(-c2c(C)cc3c(C(C)C)c(O)c(O)c(C#N)c3c2OC(C)=O)c(C)cc2c(C(C)C)c(O)c(O)c(C#N)c12	36
CCCCC(=O)Oc1c(-c2c(C)cc3c(C(C)C)c(O)c(O)c(C#N)c3c2OC(=O)CCCC)c(C)cc2c(C(C)C)c(O)c(O)c(C#N)c12	12
CCC(=O)Oc1c(-c2c(C)cc3c(C(C)C)c(O)c(O)c(C#N)c3c2OC(=O)CC)c(C)cc2c(C(C)C)c(O)c(O)c(C#N)c12	46
Cc1cc2c(C(C)C)c(O)c(O)c(C=O)c2c(O)c1-c1c(C)cc2c(C(C)C)c(O)c(O)c(C=O)c2c1O	7

Let's switch to this compound now.
Recorded IC50 for `CCCC(=O)Oc1c(-c2c(C)cc3c(C(C)C)c(O)c(O)c(C#N)c3c2OC(=O)CCC)c(C)cc2c(C(C)C)c(O)c(O)c(C#N)c12` , please?
21

Hey, just so you know, these numbers are from ChEMBL document CHEMBL1123447.
